Where do these numbers come from? They come from patent US20230303690A1.

Biological target: T1, human LAG3 expressed on cells (human, UniProt P18627 23-525)
T1 sequence (looked up): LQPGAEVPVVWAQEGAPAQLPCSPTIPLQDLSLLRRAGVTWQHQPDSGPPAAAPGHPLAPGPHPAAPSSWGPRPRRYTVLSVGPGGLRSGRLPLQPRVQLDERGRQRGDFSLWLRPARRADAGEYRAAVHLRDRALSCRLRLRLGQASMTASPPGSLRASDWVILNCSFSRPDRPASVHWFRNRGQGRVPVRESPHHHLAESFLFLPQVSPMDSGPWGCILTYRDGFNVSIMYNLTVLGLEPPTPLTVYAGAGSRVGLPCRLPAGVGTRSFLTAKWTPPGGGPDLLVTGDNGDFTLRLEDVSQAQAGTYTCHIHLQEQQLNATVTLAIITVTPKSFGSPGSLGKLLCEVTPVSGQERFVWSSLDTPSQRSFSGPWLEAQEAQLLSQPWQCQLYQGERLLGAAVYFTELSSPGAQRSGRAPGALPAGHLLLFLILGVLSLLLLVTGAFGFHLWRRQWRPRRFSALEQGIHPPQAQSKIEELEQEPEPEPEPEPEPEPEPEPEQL
Test: cell-based or functional assay
# key: entry, value: IL-2, % of BMS, at 0.005080526 ug/mL

BINDER	IL-2, % of BMS, at 0.005080526 ug/mL
sdAb No. 25 (VHH, Fc of the tested form not described; also called sdAb 25; sdAb #25; not shown: Fc part implied by anti-human Fc capture and anti-human IgG Fc detection) VHH: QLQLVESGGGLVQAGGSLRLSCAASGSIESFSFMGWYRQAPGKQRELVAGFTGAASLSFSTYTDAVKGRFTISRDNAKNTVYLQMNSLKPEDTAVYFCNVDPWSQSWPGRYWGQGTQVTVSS	3.24%
combination of sdAbs 25 and 18 (other) VHH 1: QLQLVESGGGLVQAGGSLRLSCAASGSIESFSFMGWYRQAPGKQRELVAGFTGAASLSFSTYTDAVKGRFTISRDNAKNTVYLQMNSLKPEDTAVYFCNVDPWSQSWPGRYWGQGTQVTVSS VHH 2: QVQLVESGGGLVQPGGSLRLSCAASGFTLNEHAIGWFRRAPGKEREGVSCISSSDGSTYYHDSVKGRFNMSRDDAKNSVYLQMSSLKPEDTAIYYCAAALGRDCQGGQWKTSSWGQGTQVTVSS	0%
combination of sdAbs 25 and 27 (other) VHH 1: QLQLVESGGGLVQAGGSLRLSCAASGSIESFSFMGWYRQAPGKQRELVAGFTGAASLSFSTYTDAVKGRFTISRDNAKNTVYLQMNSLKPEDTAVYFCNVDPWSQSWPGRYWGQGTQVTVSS VHH 2: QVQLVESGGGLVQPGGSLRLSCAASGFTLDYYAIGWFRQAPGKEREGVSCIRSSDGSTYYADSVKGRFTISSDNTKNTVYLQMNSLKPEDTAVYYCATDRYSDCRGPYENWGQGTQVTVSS	0%

Q) Any idea what its IL-2, % of BMS, at 0.005080526 ug/mL is? The binder is sdAb No. 27 (VHH, Fc of the tested form not described; also called sdAb 27; not shown: Fc part implied by anti-human Fc capture and anti-human IgG Fc detection) VHH: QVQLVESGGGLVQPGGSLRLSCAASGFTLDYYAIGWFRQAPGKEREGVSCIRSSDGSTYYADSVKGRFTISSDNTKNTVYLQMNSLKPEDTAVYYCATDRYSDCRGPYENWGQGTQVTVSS
A) 5.57%

Q) What about this binder? sdAb No. 18 (VHH, Fc of the tested form not described; also called sdAb 18; not shown: Fc part implied by anti-human Fc capture) VHH: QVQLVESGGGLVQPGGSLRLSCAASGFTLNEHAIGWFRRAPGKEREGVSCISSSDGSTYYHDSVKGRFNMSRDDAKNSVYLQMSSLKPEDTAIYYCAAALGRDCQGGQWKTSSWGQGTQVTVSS
A) 7.39%

Q) Same read-out for combination of sdAbs 25 and 2015 (other) VHH 1: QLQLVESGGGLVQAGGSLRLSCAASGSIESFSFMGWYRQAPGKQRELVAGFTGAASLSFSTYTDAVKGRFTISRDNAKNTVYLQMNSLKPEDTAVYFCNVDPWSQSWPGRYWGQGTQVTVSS VHH 2: QLQLVESGGGLAQTGGSLRLSCAAAGFTFDDTATGWFRQAPGKNREGVACISSSDGRIHYIDSAKGRFTISKDNAKKTVYLQMDSLKPEDTAVYYCAAARKGSTDCQGAIWGSWGQGTQVIVSS ?
A) 0.0473%
